test-method-notes: Volume of distribution at steady state in Sprague-Dawley rat at 10 umol/kg, via carotid artery by LC-MS method
Type: ADME, organism-based
run-parameters: in vivo, read-out: Vdss
metric-name: Vd (L/kg)

Illustrative cases are given below, each with its answer.
mol: COc1cccc2snc(NCC(C)(C)c3ccccc3)c12
Vd (L/kg): 3.9
//
mol: COc1cccc2c1c(NCC(C)(C)c1ccccc1)nn2C
Vd (L/kg): 1.7
//
mol: CCNC(=O)O[C@H]1CC[C@](CNc2nn(C)c3cccc(OC)c23)(c2ccccc2)CC1
Vd (L/kg): 0.6
//
mol: COc1cccc2c1C(NCC(C)(C)c1ccccc1)=NC2=O
Vd (L/kg): 1.1

[a] CCNC(=O)O[C@H]1CC[C@](CNc2n[nH]c3cccc(OC)c23)(c2ccccc2)CC1
[b] COc1cccc2oc(=O)nc(NCC(C)(C)c3ccccc3)c12
[c] COc1cccc2ccnc(NCC(C)(C)c3ccccc3)c12
[d] COc1cccc2onc(NCC(C)(C)c3ccccc3)c12
Please rank these compounds by Vd in descending order. To answer, write out the labels according to the requested order.
c, d, a, b
(c: 14 L/kg, d: 3.7 L/kg, a: 1.4 L/kg, b: 0.7 L/kg)

* * *

test-method-notes: Clearance in Sprague-Dawley rat at 10 umol/kg, via carotid artery by LC-MS method
Assay type: ADME, organism-based
run-parameters: in vivo
metric-name: clearance (mL/min/kg)

Illustrative cases are given below, each with its answer.
mol: CCNC(=O)O[C@H]1CC[C@](CNc2nn(C)c3cccc(OC)c23)(c2ccccc2)CC1
readout-unit: mL/min/kg
numeric-result: 8
//
mol: COc1cccc2oc(=O)nc(NCC(C)(C)c3ccccc3)c12
readout-unit: mL/min/kg
numeric-result: 10
//
mol: CCNC(=O)O[C@H]1CC[C@](CNc2n[nH]c3cccc(OC)c23)(c2ccccc2)CC1
readout-unit: mL/min/kg
numeric-result: 21
//
mol: COc1cccc2ccnc(NCC(C)(C)c3ccccc3)c12
readout-unit: mL/min/kg
numeric-result: 124
//
mol: COc1cccc2c1C(NCC(C)(C)c1ccccc1)=NC2=O
readout-unit: mL/min/kg
numeric-result: 35
//
mol: COc1cccc2snc(NCC(C)(C)c3ccccc3)c12
readout-unit: mL/min/kg
numeric-result: 28

[1] COc1cccc2c1c(NCC(C)(C)c1ccccc1)nn2C
[2] COc1cccc2onc(NCC(C)(C)c3ccccc3)c12
Consider entries 1 and 2 . Which has the numerically lower clearance? Use the label to indicate which entry you chose.
1

* * *

target-entity: hERG (KCNH2) (Homo sapiens)
Sequence (Q12809 whole entry): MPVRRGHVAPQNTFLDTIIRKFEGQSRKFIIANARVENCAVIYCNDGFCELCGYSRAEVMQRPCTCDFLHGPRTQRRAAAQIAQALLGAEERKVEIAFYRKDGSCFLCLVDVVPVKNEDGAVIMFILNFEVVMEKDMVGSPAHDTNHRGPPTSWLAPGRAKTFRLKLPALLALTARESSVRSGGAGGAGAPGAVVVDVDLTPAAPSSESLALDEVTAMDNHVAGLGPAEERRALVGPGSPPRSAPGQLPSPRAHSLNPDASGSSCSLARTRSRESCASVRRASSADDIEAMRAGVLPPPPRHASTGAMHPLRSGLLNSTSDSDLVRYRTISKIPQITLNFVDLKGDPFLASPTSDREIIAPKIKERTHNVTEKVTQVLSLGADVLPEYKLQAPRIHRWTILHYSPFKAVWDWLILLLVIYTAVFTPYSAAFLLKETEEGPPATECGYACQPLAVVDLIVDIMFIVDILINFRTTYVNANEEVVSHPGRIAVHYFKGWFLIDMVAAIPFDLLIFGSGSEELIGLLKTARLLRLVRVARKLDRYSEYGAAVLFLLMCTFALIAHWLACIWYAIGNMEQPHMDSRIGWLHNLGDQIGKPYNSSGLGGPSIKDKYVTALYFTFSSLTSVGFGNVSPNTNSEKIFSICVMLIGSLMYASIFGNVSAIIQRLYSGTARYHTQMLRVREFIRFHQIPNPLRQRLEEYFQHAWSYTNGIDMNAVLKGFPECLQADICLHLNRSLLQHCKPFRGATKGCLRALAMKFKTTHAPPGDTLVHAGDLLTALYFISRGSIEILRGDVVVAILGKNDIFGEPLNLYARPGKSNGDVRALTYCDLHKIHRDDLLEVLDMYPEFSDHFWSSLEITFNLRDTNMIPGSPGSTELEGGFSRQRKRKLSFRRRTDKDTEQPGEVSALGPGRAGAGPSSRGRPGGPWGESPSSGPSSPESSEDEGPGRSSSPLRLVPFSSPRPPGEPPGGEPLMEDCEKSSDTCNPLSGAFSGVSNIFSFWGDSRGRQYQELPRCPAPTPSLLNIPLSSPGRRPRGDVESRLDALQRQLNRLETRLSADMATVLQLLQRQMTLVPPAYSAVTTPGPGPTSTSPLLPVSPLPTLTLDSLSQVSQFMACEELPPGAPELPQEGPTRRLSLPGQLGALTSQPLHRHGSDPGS
test-method-notes: Inhibition of human ERG at 10 uM
metric-name: inhibition at 10 µM (%)
Give the value, in units of %, as a plain number.

Illustrative cases are given below, each with its answer.
mol: COc1cccc2ncnc(NCC(C)(C)c3ccccc3)c12
target-entity: hERG (KCNH2) (Homo sapiens)
inhibition at 10 µM, %: 90
//
mol: COc1cccc2c1C(NCC(C)(C)c1ccccc1)=NC2=O
target-entity: hERG (KCNH2) (Homo sapiens)
inhibition at 10 µM, %: 46
//
mol: CCNC(=O)O[C@H]1CC[C@](CNc2n[nH]c3cccc(OC)c23)(c2ccccc2)CC1
target-entity: hERG (KCNH2) (Homo sapiens)
inhibition at 10 µM, %: 52
//
mol: CCNC(=O)O[C@H]1CC[C@](CNc2nn(C)c3cccc(OC)c23)(c2ccccc2)CC1
target-entity: hERG (KCNH2) (Homo sapiens)
inhibition at 10 µM, %: 54
//
mol: COc1cccc2ccnc(NCC(C)(C)c3ccccc3)c12
target-entity: hERG (KCNH2) (Homo sapiens)
inhibition at 10 µM, %: 99

What value of inhibition at 10 µM has been recorded for this entry: COc1cccc2oc(=O)nc(NCC(C)(C)c3ccccc3)c12
66

Ok, now COc1cccc2c1c(NCC(C)(C)c1ccccc1)nn2C
69

Reference for the values: ChEMBL document CHEMBL3297706
